Reference for the values: PubChem BioAssay AID1136

# Tested on: Alkaline phosphatase, tissue-nonspecific isozyme (Homo sapiens) (UniProt P05186)
# Sequence (P05186 whole entry, looked up): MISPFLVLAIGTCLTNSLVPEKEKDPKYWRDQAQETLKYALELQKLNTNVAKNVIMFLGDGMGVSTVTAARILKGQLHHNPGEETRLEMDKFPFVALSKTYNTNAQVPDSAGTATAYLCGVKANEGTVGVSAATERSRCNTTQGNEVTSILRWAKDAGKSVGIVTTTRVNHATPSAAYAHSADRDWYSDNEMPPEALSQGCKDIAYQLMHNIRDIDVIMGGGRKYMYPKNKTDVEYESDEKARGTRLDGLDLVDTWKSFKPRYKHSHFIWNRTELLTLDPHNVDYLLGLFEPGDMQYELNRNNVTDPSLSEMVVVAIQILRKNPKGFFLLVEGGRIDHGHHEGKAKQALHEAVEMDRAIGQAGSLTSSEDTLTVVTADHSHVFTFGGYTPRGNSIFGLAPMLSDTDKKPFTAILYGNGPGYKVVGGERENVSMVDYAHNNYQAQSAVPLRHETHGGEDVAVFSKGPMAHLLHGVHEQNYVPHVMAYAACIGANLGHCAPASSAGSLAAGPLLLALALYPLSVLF
# Experiment notes: TNAP activators at high phosphate acceptor level, primary screen, biochemical, luminescence, uHTS (AID 1136)
# Test parameters: purified TNAP, CDP-star luminescence, 1 M DEA, 30 min; at 20 µM; active compounds read high; 0 = EDTA background, 1 = DMSO-only activity
The campaign covered roughly 200,000 compounds. Fewer than 10 were called active. A selection follows.
Let's look at some compounds and their measured activation factor.
A bare number is all that is needed in reply.

Please review the following examples before continuing.
Compound | Tested on | activation factor
CCN(CC)CCCNC(=O)c1ccc2c(=O)n(Cc3ccc4c(c3)OCO4)c(=S)[nH]c2c1 | Alkaline phosphatase, tissue-nonspecific isozyme (Homo sapiens) (UniProt P05186) | 1
Cc1cc(C)cc(OCC(=O)Nc2ccc(S(=O)(=O)Nc3ccccn3)cc2)c1 | Alkaline phosphatase, tissue-nonspecific isozyme (Homo sapiens) (UniProt P05186) | 1
Cc1nn(C)cc1C(=O)Nc1ccccc1Br | Alkaline phosphatase, tissue-nonspecific isozyme (Homo sapiens) (UniProt P05186) | 1
COC(=O)c1ccc(C(NC(=O)OCc2ccccc2)/C(C)=C/[C@@H](C)C(=O)NCc2ccc(OC)c(OC)c2)cc1 (stereo partly specified) | Alkaline phosphatase, tissue-nonspecific isozyme (Homo sapiens) (UniProt P05186) | 1.1
COc1ccccc1NC(=O)C1=C(C)Nc2nc3ccccc3n2C1c1cccs1 (stereo unspecified) | Alkaline phosphatase, tissue-nonspecific isozyme (Homo sapiens) (UniProt P05186) | 1
COC(=O)CCSc1cc([N+](=O)[O-])cc2c1c(C1OCCS1)nn2-c1ccccc1 (stereo unspecified) | Alkaline phosphatase, tissue-nonspecific isozyme (Homo sapiens) (UniProt P05186) | 1

Query `Cc1ccc(NC(=O)c2csc3c2CCCC3)cc1` yields activation factor of 1

# activation factor (compound: `COc1ccc(-c2[nH]ncc2CN(C)Cc2cccnc2)c(F)c1` ) is 1

The compound `Cc1ccc(CNC(=O)c2ccccc2CCc2ccccc2)cc1` showed activation factor equal to 1.1

According to the records, this compound `O=C(Nc1ccc(C(=O)O)cc1)/C(=C/c1ccc([N+](=O)[O-])cc1)NC(=O)c1ccccc1` displays activation factor of 1

Data point: `COc1ccc(C(=O)NCC(=O)N/N=C/c2ccc([N+](=O)[O-])s2)cc1OC` ; activation factor = 0.9

For reference, reported activation factor for `CCOC(=O)COc1cc(O)c2c(=O)cc(-c3ccccc3)oc2c1` stands at 1

Looking up `O=C(/C=C/c1ccc([N+](=O)[O-])cc1)NCCSCc1ccco1` , I see its activation factor listed as 1

The reported activation factor of the compound `Cc1ccc(O)c(-c2cc(C(=O)NCc3ccccc3)[nH]n2)c1` was 2.3
